Values compiled from the supplement of paper PMC10065799.

# System: Fer (mouse);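 further: 11-residue human phosphosite peptides and single-mutation variants displayed on the E. coli surface, counted by deep sequencing, each peptide's frequency after selection divided by its frequency in the unselected input library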;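 further: frequency after pTyr selection over input frequency; kinase dosed for 20-30% of maximal phosphorylation in three min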
# experiment-description: phosphorylation enrichment, bacterial display (enrichment ratio); higher = better substrate or ligand; peptides without Tyr show the background
Consider the following sequences; for each one, report its phosphorylation enrichment.

# sequence-entry, phosphorylation enrichment
data = [
    ("ELTSKYRGGGG [HBA1_Y141_V136E]", 0.313),
    ("IRQDHYESLKE [MTR_Y921]", 0.483),
    ("KVDKEYEVGVR [GHR_Y226_R229G]", 0.398),
    ("EKEKKYMLPLD [DNM2_Y563]", 0.489),
    ("STEVIYQPRRK [STK11_Y36]", 0.473),
    ("YGAHNHHPLPV [OAT_Y55_Y55H]", 0.693),
]

Next sequence, please.
Known value: Fer (mouse) phosphorylation enrichment of the sequence ETKKQYNSFTF [TMED3_Y85_D86N_YF] equals 0.513
